# PROTOCOL NOTES: Particle size distribution (Sympatec HELOS, dry powder dispersion)
# Type: physicochemical
# Set-up: dose or concentration left out as unconfirmed
# DETAILS: crystalline product as isolated, no milling; listed as Comp. Ex. 4; the values are: particle size D90

| SAMPLE SMILES | particle size D90 |
| --- | --- |
| CN(C)c1nc(Cc2ccc(NC(=O)c3ccc(C(F)(F)F)cc3)cc2)nc(N(C)C)c1CC(=O)O | 38 µm |

###

# PROTOCOL NOTES: Particle size distribution (Sympatec HELOS, dry powder dispersion)
# Assay type: physicochemical
# Design: dose or concentration left out as unconfirmed
# DETAILS: crystalline product as isolated, no milling; listed as Comp. Ex. 3; the values are: particle size D90
MEASUREMENT TYPE: particle size D90 (µm)

| SAMPLE SMILES | MEASUREMENT TYPE | VALUE UNIT | RECORDED RESULT |
| --- | --- | --- | --- |
| CN(C)c1nc(Cc2ccc(NC(=O)c3ccc(C(F)(F)F)cc3)cc2)nc(N(C)C)c1CC(=O)O | particle size D90 | µm | 181 |
